Value source: PubChem BioAssay

measurement-protocol: probe aNOTCH3 binding on compound microarray – biochemical, small-molecule microarray, 635/667 nm fluorescence, primary screen (AID 1120);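 note: probe is a biotin-tagged antibody raised against NOTCH3 rather than NOTCH3 protein; score merges spot fluorescence near 667 nm with spot signal to noise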
experimental-conditions: higher = more signal; small-molecule microarray, probe aNOTCH3, fluorescence unless noted
property: composite z-score

COC(=O)[C@H]1C(=O)c2ccccc2O[C@@](C(=O)OC)(c2ccccc2)[C@@H]1c1ccccc1; -0.27
C[C@@H]1Cc2c(cnc3c2CN(C)CC3)CO1; -0.0902
O=P(c1ccccc1)(c1ccccc1)N1CC2(CC2)CC(O)(c2ccccc2)C1 (centres undefined); 0.392
COc1cc2c(cc1O)C=[N+](C)CC2; -0.0377

Memo: COC(=O)[C@H]1[C@H](c2ccccc2)C(=O)[C@]2(O)c3ccccc3O[C@@]12c1ccccc1 , reported composite z-score: 0.0833

Memo: CCCc1cc2c(n1Cc1ccco1)C(C)C1CN(C(=O)c3ccccc3)C(C)(C(=O)OC)C21 (centres undefined) , reported composite z-score: 0.247

Memo: COC(=O)[C@H]1[C@@H](O)[C@@]2(O)c3c(OC)cc(OC)cc3O[C@@]2(c2ccc(OC)cc2)[C@@H]1c1ccccc1 , reported composite z-score: -0.101

Memo: COC(=O)NCC=Cc1nc(CCC=CC(=O)O[C@H]2CC3CC(=O)O[C@@H](C=CCC(C)C)C[C@@H]4CC[C@H](C)[C@@H](C[C@@H](OC)C[C@H](C2)O3)O4)co1 , reported composite z-score: -0.095

Memo: CCCc1cc2c(n1Cc1cccc(Cl)c1)C(C)C1CN(C(=O)c3ccccc3)C(C)(C(=O)OC)C21 (centres undefined) , reported composite z-score: 0.0372

====

measurement-protocol: growth of efflux-deficient E. coli DRC39 – strain DRC39, OD650, 48 h, E. coli filamentation inducers, primary screen (AID 1179);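 note: screen aims at cell division blockers that make cells filament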
experimental-conditions: E. coli DRC39 delta-acrAB growth, higher = more signal, called active from +8 up or from −8 down unless noted
Recorded z-score, one value per entry.
Respond with the number and no other words.

OCc1ccc(C2=CC(c3cccs3)N(Cc3cccc(OC(F)(F)F)c3)CC2)cc1 (stereo not given); -0.544
C[C@H]1O[C@H]2C3=C(C(=O)[C@@H]4O[C@@H]4[C@@H]3O)[C@@H]1[C@@H]1[C@@H](C)OC=C3[C@@H](O)[C@H]4O[C@H]4C(=O)[C@]312; -0.115
CCOC(=O)[C@H]1CC=C2C(=O)Oc3ccc(Br)cc3[C@@H]21; -0.568
CN1CCc2nc(CO)c(CO)cc2C1; -0.019
CN1CCC(c2ccc(CO)cc2)=CC1c1cccs1 (stereo not given); -0.447
CCCc1cc2c(n1Cc1cccc(Cl)c1)C(C)C1CN(C(=O)c3ccccc3)C(C)(C(=O)OC)C21 (stereo not given); -0.0676
CCc1cc2c(nc1CC)CCN(CCC(C)=NOC)C2; -2.63
CCCC[C@@H]1C[C@H]1[C@@H](NP(=O)(c1ccccc1)c1ccccc1)c1ccc(Cl)cc1; -0.363
COc1cc2c(cc1O)C=[N+](C)CC2; 1.42

Memo: O=P(c1ccccc1)(c1ccccc1)N1CC2(CC2)CC(O)(c2ccccc2)C1 (stereo not given) , reported z-score: 0.158

====

Test system: Plasmodium falciparum Sir2 (PF13_0152, Sir2A)
measurement-protocol: Plasmodium falciparum Sir2A binding compounds – biochemical, small-molecule microarray, 635 nm fluorescence, primary screen (AID 1098);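 note: score merges spot fluorescence intensity with its signal-to-noise ratio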
experimental-conditions: fluorescence 635 nm, higher = more signal
Outcome label depends on composite z-score relative to 0.4: at/above gives T, below gives F.

CCOC(=O)[C@H]1CC=C2C(=O)Oc3ccc(Br)cc3[C@@H]21; T
COC(=O)[C@H]1[C@@H](O)[C@@]2(O)c3c(OC)cc(OC)cc3O[C@@]2(c2ccc(OC)cc2)[C@@H]1c1ccccc1; F

# input for lookup
Query block: Determine whether measured composite z-score meets or exceeds 0.4 for COc1cc2c(cc1O)C(C)N(C)CC2 (stereo not drawn)
Result block: F

====

measurement-protocol: probe aCHRDL2 binding to arrayed compounds – biochemical, biotinylated probe, 635/667 nm fluorescence, primary screen (AID 1100)
experimental-conditions: higher = more signal; small-molecule microarray, probe aCHRDL2, fluorescence unless noted
property: composite z-score
Respond with the number and no other words.

Field: example entries. Status: answers known.
CCCc1cc2c(n1Cc1ccc(C)cc1)C(C)C1CN(C(=O)c3ccccc3)C(C)(C(=O)OC)C21 (centres undefined); 1.46
COC(=O)[C@@]1(Cc2ccccc2)[C@H]2c3cc(C(=O)N(C)C)n(C)c3C[C@H]2CN1C(=O)c1ccccc1; 0.836
COc1cc2c(cc1O)C(C)N(C)CC2 (centres undefined); 0.34

Memo: C[C@@H]1OC=C2[C@@H](O)[C@H]3O[C@H]3C(=O)[C@]23[C@H]1[C@H]1C2=C([C@@H](O)[C@H]4O[C@H]4C2=O)[C@@H]3O[C@@H]1C , reported composite z-score: -0.572

====

measurement-protocol: JC-1 mitochondrial signal, unstimulated adipocytes – cell-based, JC-1 fluorescence, 3T3-L1 adipocytes, 24 h, 100 nL compound, profiling panel (AID 1168); note: test concentration not given here
experimental-conditions: JC-1 mitochondrial fluorescence; higher = more signal, called active from +8 up or from −8 down unless noted
Outcome label depends on z-score relative to -0.2: at/above gives fulfilled, below gives not fulfilled.

CN1CCc2nc(CO)c(CO)cc2C1; not fulfilled
CCCC=C(CCC)[C@@H](NP(=O)(c1ccccc1)c1ccccc1)c1ccccc1; fulfilled
COC(=O)NCC=Cc1nc(CCC=CC(=O)O[C@H]2CC3CC(=O)O[C@@H](C=CCC(C)C)C[C@@H]4CC[C@H](C)[C@@H](C[C@@H](OC)C[C@H](C2)O3)O4)co1; fulfilled
C[C@@H]1OC=C2[C@@H](O)[C@H]3O[C@H]3C(=O)[C@]23[C@H]1[C@H]1C2=C([C@@H](O)[C@H]4O[C@H]4C2=O)[C@@H]3O[C@@H]1C; not fulfilled

Query block: Determine whether measured z-score meets or exceeds -0.2 for OCc1ccc(C2=CC(C3CC3)N(Cc3sc4ccccc4c3Cl)CC2)cc1 (stereo not given)
Result block: fulfilled

Query block: Determine whether measured z-score meets or exceeds -0.2 for CN1CCC(c2ccc(CO)cc2)=CC1C1CC1 (stereo not given)
Result block: not fulfilled

Query block: Determine whether measured z-score meets or exceeds -0.2 for COc1cc2c(cc1O)C=[N+](C)CC2
Result block: fulfilled

Query block: Determine whether measured z-score meets or exceeds -0.2 for c1ccc(-c2cc3c(nc2-c2ccccc2)CCNC3)cc1
Result block: not fulfilled

Query block: Determine whether measured z-score meets or exceeds -0.2 for COC(=O)[C@H]1C(=O)c2ccccc2O[C@@](C(=O)OC)(c2ccccc2)[C@@H]1c1ccccc1
Result block: not fulfilled

Query block: Determine whether measured z-score meets or exceeds -0.2 for CCCc1cc2c(n1Cc1ccc(C)cc1)C(C)C1CN(C(=O)c3ccccc3)C(C)(C(=O)OC)C21 (stereo not given)
Result block: not fulfilled

====

measurement-protocol: binders of probe aHhip on microarray, primary screen, stem cell growth factor project, biochemical, small-molecule microarray, fluorescence 635/667 (AID 1087);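 note: score merges spot fluorescence at 667nm with spot signal to noise ratio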
experimental-conditions: higher = more signal
Recorded composite z-score, one value per entry.

Field: example entries. Status: answers known.
C[C@@H]1Cc2c(cnc3c2CN(C)CC3)CO1; 0.312
COC(=O)[C@H]1C(=O)c2ccccc2O[C@@](C(=O)OC)(c2ccccc2)[C@@H]1c1ccccc1; -0.134
O=P(c1ccccc1)(c1ccccc1)N1CC2(CC2)CC(O)(c2ccccc2)C1 (centres undefined); 0.21
CN1CCC(c2ccc(CO)cc2)=CC1c1cccs1 (centres undefined); -0.134
COC(=O)[C@@]1(Cc2ccccc2)[C@H]2c3cc(C(=O)N(C)C)n(C)c3C[C@H]2CN1C(=O)c1ccccc1; 0.189

Memo: CCCc1cc2c(n1Cc1ccco1)C(C)C1CN(C(=O)c3ccccc3)C(C)(C(=O)OC)C21 (centres undefined) , reported composite z-score: 1.05

Memo: CCc1cc2c(nc1CC)CCN(CCC(C)=NOC)C2 , reported composite z-score: 0.113

Memo: COC(=O)[C@H]1[C@H](c2ccccc2)C(=O)[C@]2(O)c3ccccc3O[C@@]12c1ccccc1 , reported composite z-score: -0.236

Memo: COC(=O)[C@H]1[C@@H](O)[C@@]2(O)c3c(OC)cc(OC)cc3O[C@@]2(c2ccc(OC)cc2)[C@@H]1c1ccccc1 , reported composite z-score: -0.152

====

measured-target: NADPH oxidase 5 (Homo sapiens)
measurement-protocol: compounds shifting NOX5 Amplex Red fluorescence – cell-based, HEK293-NOX5, NOX inhibitor project, primary screen (AID 1161)
experimental-conditions: HEK293-NOX5, ionomycin, 45 min, higher = more signal
Recorded z-score, one value per entry.
Respond with the number and no other words.

Field: example entries. Status: answers known.
COC(=O)[C@H]1[C@@H](O)[C@@]2(O)c3c(OC)cc(OC)cc3O[C@@]2(c2ccc(OC)cc2)[C@@H]1c1ccccc1; 0.219
CN1CCC(c2ccc(CO)cc2)=CC1C1CC1 (centres undefined); -0.0858

Value (z-score, NADPH oxidase 5 (Homo sapiens)) for record COC(=O)NCC=Cc1nc(CCC=CC(=O)O[C@H]2CC3CC(=O)O[C@@H](C=CCC(C)C)C[C@@H]4CC[C@H](C)[C@@H](C[C@@H](OC)C[C@H](C2)O3)O4)co1 = -0.00689

Value (z-score, NADPH oxidase 5 (Homo sapiens)) for record CCCc1cc2c(n1CCO)C(C)C1CN(C(=O)c3ccccc3)C(C)(C(=O)OC)C21 (centres undefined) = -2.35
